SYSTEM TESTED: CDK2/CycA (Homo sapiens)
Construct: purchased Proqinase
PROTOCOL DETAILS: CDK2 Enzymatic Activity Assay (Lance Kinase Activity Assay, FRET)
Type: biochemical
CONDITION DESCRIPTION: Table 7, upper part
Each entry below carries its recorded IC50.

1. CC(C)c1cnn2c(N[C@H](C)c3cccc(Cl)c3)nc(OC3CCN(C)CC3)nc12 [(VII-ad)] : > 2500 nM

Now take the following molecule into account.
Req: Short answer please: IC50, CDK2/CycA (Homo sapiens), entry COc1ccccc1[C@H](C)Nc1nc([S+]([O-])C2CCNCC2)nc2c(C(C)C)cnn12 (some centres unmarked) [(X-c)]
Resp: > 2500 nM
